Test: Logarithm of partition coefficient was determined
Type: physicochemical
Conditions: octanol/water
readout type: delta Log P

delta Log P measured on COC1(c2cccc(OCc3ccc4c(ccc(=O)n4C)c3)c2)CCOCC1 = -2

delta Log P measured on COC1(c2cc(F)cc(OCc3ccc4ncncc4c3)c2)CCOCC1 = -2.1

delta Log P measured on COC1(c2cc(F)cc(OCc3ccc4nccnc4c3)c2)CCOCC1 = -1.8

delta Log P measured on CCOC(C)=O.COC1(c2cc(F)cc(OCc3ncc4ccccc4n3)c2)CCOCC1 = -1.9

delta Log P measured on COC1(c2cc(F)cc(OCc3ccc4c(c3)n(C)c(=O)n4C)c2)CCOCC1 = -1.7

delta Log P measured on COC1(c2cc(F)cc(OCc3ccc4c(c3)ncc(=O)n4C)c2)CCOCC1 = -2.3

delta Log P measured on COC1(c2cc(F)cc(OCc3ccc4c(c3)sc(=O)n4C)c2)CCOCC1 = -1.2

delta Log P measured on COC1(c2cc(F)cc(OCc3ccc4c(ccc(=O)n4C)c3)c2)CCOCC1 = -1.7

----------
Biological target: Polyunsaturated fatty acid 5-lipoxygenase (Homo sapiens)
Sequence (P09917 whole entry): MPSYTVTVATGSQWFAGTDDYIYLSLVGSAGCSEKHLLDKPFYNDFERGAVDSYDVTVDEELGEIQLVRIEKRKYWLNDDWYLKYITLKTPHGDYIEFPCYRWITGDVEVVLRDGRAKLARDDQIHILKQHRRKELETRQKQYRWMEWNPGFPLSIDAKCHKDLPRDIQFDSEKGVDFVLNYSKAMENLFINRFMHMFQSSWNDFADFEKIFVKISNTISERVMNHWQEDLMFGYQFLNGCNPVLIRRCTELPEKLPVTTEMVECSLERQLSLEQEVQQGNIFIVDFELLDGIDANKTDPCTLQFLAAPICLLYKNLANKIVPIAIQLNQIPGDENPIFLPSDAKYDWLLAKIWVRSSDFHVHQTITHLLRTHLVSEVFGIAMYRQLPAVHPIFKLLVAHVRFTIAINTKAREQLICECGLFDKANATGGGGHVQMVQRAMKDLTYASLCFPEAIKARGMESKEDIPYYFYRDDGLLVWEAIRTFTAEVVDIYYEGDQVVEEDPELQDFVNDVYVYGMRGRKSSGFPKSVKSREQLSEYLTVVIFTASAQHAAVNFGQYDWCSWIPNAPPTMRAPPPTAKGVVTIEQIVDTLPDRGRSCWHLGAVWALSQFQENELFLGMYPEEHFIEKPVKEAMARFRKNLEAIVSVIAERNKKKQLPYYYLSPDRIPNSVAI
Assay: In vitro inhibition of leukotriene B4 synthesis in human whole blood by inhibiting 5-LPO (5-lipoxygenase)
Type: tissue-based
readout type: pIC50
pIC50 here: minus log base 10 of the concentration, concentration in moles per litre.

pIC50 measured on COC1(c2cc(F)cc(OCc3ccc4oc(=O)ccc4c3)c2)CCOCC1 = 6.52

pIC50 measured on CC(C)c1ccc2c(c1)c(SC(C)(C)C)c(CC(C)(C)C(=O)[O-])n2Cc1ccc(Cl)cc1.[Na+] = 5.96

----------
Biological target: Polyunsaturated fatty acid 5-lipoxygenase (Homo sapiens)
Test: In vitro inhibition of leukotriene B4 synthesis in human whole blood by inhibiting 5-lipoxygenase
Assay type: tissue-based
readout type: IC50 (nM)
State the answer as a number, implicitly in nM.

Entry COC1(c2cc(F)cc(OCc3ccc4c(=O)n(C)ccc4c3)c2)CCOCC1 , tested on Polyunsaturated fatty acid 5-lipoxygenase (Homo sapiens), has a reported IC50 of 200

Entry COC1(c2cc(F)cc(OCc3ccc4c(c3)sc(=O)n4C)c2)CCOCC1 , tested on Polyunsaturated fatty acid 5-lipoxygenase (Homo sapiens), has a reported IC50 of 40

Entry COC1(c2cccc(OCc3cccc4c3ccc(=O)n4C)c2)CCOCC1 , tested on Polyunsaturated fatty acid 5-lipoxygenase (Homo sapiens), has a reported IC50 of 1300

Entry COC1(c2cccc(OCc3ccc4ccccc4c3)c2)CCCCOC1 (stereo not given) , tested on Polyunsaturated fatty acid 5-lipoxygenase (Homo sapiens), has a reported IC50 of 2500

Entry COC1(c2cccc(OCC#Cc3ccccn3)c2)CCOCC1 , tested on Polyunsaturated fatty acid 5-lipoxygenase (Homo sapiens), has a reported IC50 of 400

Entry COC1(c2cccc(OCc3ccc4ccccc4c3)c2)CCCOC1 (stereo not given) , tested on Polyunsaturated fatty acid 5-lipoxygenase (Homo sapiens), has a reported IC50 of 1700

Entry COC1(c2cc(F)cc(OCc3ccc4c(c3)C(C)(C)C(=O)N4C)c2)CCOCC1 , tested on Polyunsaturated fatty acid 5-lipoxygenase (Homo sapiens), has a reported IC50 of 80

Entry COC1(c2cccc(OCc3ccc4ccccc4c3)c2)CCCOCC1 (stereo not given) , tested on Polyunsaturated fatty acid 5-lipoxygenase (Homo sapiens), has a reported IC50 of 200

Entry COC1(c2cccc(OCc3ccc4ccccc4c3)c2)COC1 , tested on Polyunsaturated fatty acid 5-lipoxygenase (Homo sapiens), has a reported IC50 of 2500

Entry COC1(c2cccc(OCc3ccc4ccccc4c3)c2C)CCOCC1 , tested on Polyunsaturated fatty acid 5-lipoxygenase (Homo sapiens), has a reported IC50 of 600

----------
Test: Aqueous solubility was determined
Type: physicochemical
Conditions: buffer
For each of the molecules below, state its Delta logS.
Note: the reply should be a number with no unit written.

Delta logS measured on COC1(c2cc(F)cc(OCc3ccc4nccnc4c3)c2)CCOCC1 = 1.8

Delta logS measured on COC1(c2cc(F)cc(OCc3ccc4c(c3)ncc(=O)n4C)c2)CCOCC1 = 1.8

Delta logS measured on COC1(c2cc(F)cc(OCc3ccc4c(c3)n(C)c(=O)n4C)c2)CCOCC1 = 1

Delta logS measured on COC1(c2cc(F)cc(OCc3ccc4ncncc4c3)c2)CCOCC1 = 1.5

Delta logS measured on COC1(c2cccc(OCc3ccc4c(ccc(=O)n4C)c3)c2)CCOCC1 = 1.8

Delta logS measured on COC1(c2cc(F)cc(OCc3ccc4c(c3)sc(=O)n4C)c2)CCOCC1 = 0.8

Delta logS measured on CCOC(C)=O.COC1(c2cc(F)cc(OCc3ncc4ccccc4n3)c2)CCOCC1 = 1.9

Delta logS measured on COC1(c2cc(F)cc(OCc3ccc4c(ccc(=O)n4C)c3)c2)CCOCC1 = 0.9
